test system: IP-10; test: Cytokine production induced by sample formulations: IP-10; format: in vivo; settings: Table 4; mice, i.v., 0.5 mpk, 6 hours; in pg/mL (unit assumed)
Param threshold (200) applies to IP-10; output true (1) when value >= threshold, false (0) when value < threshold.

Worked examples, 5 compounds total:
INSERT INTO results (compound, category_label) VALUES
  ('CCCCCCCCCCCCN(CCCCCCCCCCCC)CCN1CCN(CCN(CCCCCCCCC)CCN(CCCCCCCCC)CCCCCCCCC)CC1', 'true (1)'),
  ('CCCCCCCCCN(CCCCCCCCC)CCN(CCCCCCCCC)CCN1CCNCC1', 'false (0)'),
  ('CCCCCCCCCCCCCCN(CCCCCCCCCCCCCC)CCN(CCCCCCCCCCCCCC)CCN1CCN(CCN(CCCCCCCCCCCC)CCCCCC(=O)OCCCCC)CC1', 'true (1)'),
  ('CCCCCCCCCCCCN(CCCCCCCCCCCC)CCN(CCCCCCCCCCCC)CCN1CCN(CCN(CCCCCC(=O)OCCCCC)CCCCCC(=O)OCCCCC)CC1', 'true (1)'),
  ('CCCCCC=CCC=CCCCCCCCCC(CCCCCCCCC=CCC=CCCCCC)OC(=O)CCCN(C)C (stereo not drawn) [MC3, reference compound]', 'true (1)');

(Q) Does IP-10 meet or surpass 200 for CCCCCCCC/C=C\CCCCCCCCN(CCCCCCCC/C=C\CCCCCCCC)CCN1CCN(CCN(CCCCCCCCCCCC)CCN(CCCCCCCCCCCC)CCCCCCCCCCCC)CC1 ?
(A) true (1)

(Q) Next up: CCCCCCCCCCCCCCN(CCCCCCCCCCCCCC)CCN1CCN(CCN(CCCCCCCCCCCC)CCN(CCCCCCCCCCCC)CCCCCCCCCCCC)CC1
(A) false (0)

(Q) One more compound: CCCCCCCCCCCCCCN(CCCCCCCCCCCCCC)CCN(CCCCCCCCCCCCCC)CCN1CCN(CCN(CCCCCCCCC)CCCCCCCCC)CC1
(A) true (1)

----------
system: IP-10; experiment: Cytokine production induced by sample formulations: IP-10; format: in vivo; conditions: mice, i.v., 0.5 mpk, 6 hours
Metric: IP-10 induction, rank or comparison with IL-6 (in words)

Use the examples below as a reference point.
INSERT INTO assay_data (molecule_smiles, meas_value) VALUES
  ('CCCCC/C=C\C/C=C\CCCCCCCCN(CCO)CCCCCCCCC', 'lowest IP-10 levels'),
  ('CCCCCCCCCN(CCCCCCCCC)CCN1CCNCC1', 'lowest IP-10 expression'),
  ('CCCCCCCCCCCCN(CCCCCCCCCCCC)CCN1CCN(C)CC1', 'highest IP-10 expression'),
  ('CCCCC/C=C\C/C=C\CCCCCCCCN(CCO)CCCCCC', 'lowest IP-10 levels');

(Q) What value of IP-10 induction, rank or comparison with IL-6 (in words) has been reported for the following compound? CCCCC/C=C\C/C=C\CCCCCCCCN(CCCCCCCC/C=C\C/C=C\CCCCC)CCN1CCN(CCCCCCCCCCCC)CC1
(A) highest IP-10 expression

(Q) Please do the same for CCCCCCCCCN(CCCCCCCCC)CCN(CCCCCCCCC)CCN1CCNCC1 as well.
(A) lowest IP-10 expression

Ref: patent US10195156B2
